// provenance: patent US20200331925A1

target: CDK5/p35 (Homo sapiens); assay: CDK5/p35 kinase assay (Nanosyn, Caliper microfluidic); conditions: 12-point dose-response, ATP at Km (20 μM), 3 hr
Reported IC50 values follow for various compounds
Only the number, expressed in µM, is required.

C[C@H]1NCCC[C@H]1C(=O)Nc1ncc2cc3n(c2n1)C1(CCCCC1)CNC3=O [Compound 30]	8
O=C1NCC2(CCCCC2)n2c1cc1cnc(N[C@H]3CC[C@H](NC4CCOCC4)CC3)nc12 [Compound 16]	0.47
NS(=O)(=O)Cc1cccc(Nc2ncc3cc4n(c3n2)C2(CCCCC2)CNC4=O)c1 [Compound 43]	94

Looking up O=C1NCC2(CCCCC2)n2c1cc1cnc(NC(=O)[C@H]3CCNC3)nc12 [Compound 33] , I see its IC50 listed as 34

###

target: CDK4/Cyclin D1 (Homo sapiens); assay: CDK4/Cyclin D1 kinase assay (Nanosyn, Caliper microfluidic); assay type: biochemical; conditions: 12-point dose-response, ATP at Km (200 μM), 3 hr; Table 4
Sequence (P11802 whole entry): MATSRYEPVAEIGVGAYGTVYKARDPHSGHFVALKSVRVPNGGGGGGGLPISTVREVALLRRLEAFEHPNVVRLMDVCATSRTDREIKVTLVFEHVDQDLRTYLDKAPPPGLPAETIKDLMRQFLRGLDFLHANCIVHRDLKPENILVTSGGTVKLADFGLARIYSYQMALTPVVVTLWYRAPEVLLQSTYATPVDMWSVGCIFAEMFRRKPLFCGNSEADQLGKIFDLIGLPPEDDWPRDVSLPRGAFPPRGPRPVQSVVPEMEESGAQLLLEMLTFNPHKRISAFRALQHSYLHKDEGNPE
Sequence (P24385 whole entry partner): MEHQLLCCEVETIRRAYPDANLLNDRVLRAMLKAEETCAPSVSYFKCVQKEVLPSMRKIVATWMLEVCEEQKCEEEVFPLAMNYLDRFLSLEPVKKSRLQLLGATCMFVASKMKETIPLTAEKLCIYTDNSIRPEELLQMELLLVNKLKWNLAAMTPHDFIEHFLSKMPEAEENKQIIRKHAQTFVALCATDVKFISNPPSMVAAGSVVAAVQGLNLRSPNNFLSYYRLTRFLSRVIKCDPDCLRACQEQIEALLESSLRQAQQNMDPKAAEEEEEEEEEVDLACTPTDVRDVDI
IC50 under 10 nM gets 1 (yes), anything at or over 10 nM gets 0 (no).

N[C@H]1CC[C@H](Nc2ncc3cc4n(c3n2)C2(CCCCC2)CNC4=O)CC1	1 (yes)
O=C1NCC2(CCCCC2)n2c1cc1cnc(NC(=O)[C@@H]3CCNC3)nc12	0 (no)
O=C1NCC2(CCCCC2)n2c1cc1cnc(N[C@@H]3CCCNC3)nc12	0 (no)
O=C1NCC2(CCCCC2)n2c1cc1cnc(N[C@H]3CC[C@H](NCc4ccccc4F)CC3)nc12	0 (no)

Please look at the following compound next.
IN: Please check: IC50 for `CN1CCN([C@H]2CC[C@@H](Nc3ncc4cc5n(c4n3)C3(CCCCC3)CNC5=S)CC2)CC1` , strictly under 10 nM or not?
OUT: 1 (yes)

###

target: CDK7/Cyclin H (Homo sapiens, UniProt P50613); experiment: CDK7/Cyclin H kinase assay (Nanosyn, Caliper microfluidic); conditions: 12-point dose-response, ATP at Km (50 μM), 17 hr
Sequence (P50613 whole entry): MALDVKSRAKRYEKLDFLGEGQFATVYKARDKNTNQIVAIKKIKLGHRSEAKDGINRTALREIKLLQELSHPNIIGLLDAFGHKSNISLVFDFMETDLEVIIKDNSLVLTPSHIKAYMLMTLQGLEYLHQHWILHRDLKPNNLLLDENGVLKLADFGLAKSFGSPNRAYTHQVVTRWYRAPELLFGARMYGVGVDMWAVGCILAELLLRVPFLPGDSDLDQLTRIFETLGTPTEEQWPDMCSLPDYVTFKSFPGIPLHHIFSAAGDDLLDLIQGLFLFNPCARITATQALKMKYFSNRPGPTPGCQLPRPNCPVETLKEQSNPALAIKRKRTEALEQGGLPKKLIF
Sequence (P51946 whole entry partner): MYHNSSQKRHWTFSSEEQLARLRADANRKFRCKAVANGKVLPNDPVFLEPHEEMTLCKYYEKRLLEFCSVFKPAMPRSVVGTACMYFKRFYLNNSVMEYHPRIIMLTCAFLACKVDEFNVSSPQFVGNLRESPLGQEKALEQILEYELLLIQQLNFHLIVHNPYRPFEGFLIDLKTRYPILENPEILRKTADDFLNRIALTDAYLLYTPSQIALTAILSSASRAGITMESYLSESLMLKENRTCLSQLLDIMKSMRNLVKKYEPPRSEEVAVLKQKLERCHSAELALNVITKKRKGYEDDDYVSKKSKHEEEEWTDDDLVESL
Sequence (P51948 whole entry partner): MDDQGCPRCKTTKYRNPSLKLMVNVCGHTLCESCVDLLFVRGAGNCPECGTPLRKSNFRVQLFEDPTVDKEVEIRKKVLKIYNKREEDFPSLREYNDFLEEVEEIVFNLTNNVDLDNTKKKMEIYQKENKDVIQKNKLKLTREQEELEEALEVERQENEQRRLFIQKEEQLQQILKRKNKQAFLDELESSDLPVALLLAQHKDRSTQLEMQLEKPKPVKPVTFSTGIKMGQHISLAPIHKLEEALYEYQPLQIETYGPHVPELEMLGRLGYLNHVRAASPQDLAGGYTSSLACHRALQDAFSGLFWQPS
Each record here notes measured pIC50.
Units for pIC50: none; it is -log10 of a concentration expressed in mol/L.

Example entries begin here.
O=C(C[C@@H]1CCCN1)Nc1ncc2cc3n(c2n1)C1(CCCCC1)CNC3=O	4.77
S=C1NCC2(CCCCC2)n2c1cc1cnc(N[C@H]3CCCNC3)nc12	8.00

Sample `O=C1NCC2(CCCCC2)n2c1cc1cnc(N[C@H]3CC[C@H](NCc4cccnc4)CC3)nc12` ; pIC50 observed: 6.96

###

This section presents molecules with their documented log10(IC50) values.
target: CDK5/p25 (Homo sapiens, UniProt Q00535); assay: CDK5/p25 kinase assay (Nanosyn, Caliper microfluidic); conditions: 12-point dose-response, ATP at Km (20 μM), 3 hr
Sequence (Q00535 whole entry): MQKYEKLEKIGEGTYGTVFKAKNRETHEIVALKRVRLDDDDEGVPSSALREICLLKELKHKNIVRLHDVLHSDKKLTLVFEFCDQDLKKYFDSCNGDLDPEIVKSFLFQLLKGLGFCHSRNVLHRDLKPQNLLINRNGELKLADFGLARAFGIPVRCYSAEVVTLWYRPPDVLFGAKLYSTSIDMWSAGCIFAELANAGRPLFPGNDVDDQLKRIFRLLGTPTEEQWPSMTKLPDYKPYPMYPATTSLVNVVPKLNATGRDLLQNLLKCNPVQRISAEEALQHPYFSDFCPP
Sequence (Q15078 99-307 partner limits assumed): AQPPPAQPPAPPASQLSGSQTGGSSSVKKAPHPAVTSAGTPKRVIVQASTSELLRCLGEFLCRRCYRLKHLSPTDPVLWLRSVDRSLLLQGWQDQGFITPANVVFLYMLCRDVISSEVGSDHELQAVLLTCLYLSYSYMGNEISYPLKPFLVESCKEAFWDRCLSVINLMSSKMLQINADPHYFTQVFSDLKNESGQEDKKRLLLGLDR
The common logarithm of IC50 in nM is what is listed.

C[C@H]1CC[C@H](Nc2ncc3cc4n(c3n2)C2(CCCCC2)CN=C4)CC1	2.82

So, `CS(=O)(=O)N[C@H]1CC[C@H](Nc2ncc3cc4n(c3n2)C2(CCCCC2)CNC4=O)CC1` ? Its log10(IC50) was 2.36

log10(IC50) reading for `O=C1NCC2(CCCCC2)n2c1cc1cnc(N[C@H]3CC[C@H](Nc4ncc(F)cn4)CC3)nc12` : 2.08

Form field log10(IC50), entry `O=C1CC[C@H](Nc2ncc3cc4n(c3n2)C2(CCCCC2)CNC4=O)CN1` : 2.41

Summary for this molecule, `O=C1NCC2(CCCCC2)n2c1cc1cnc(N[C@H]3CCCNC3=O)nc12` : log10(IC50) is 4.74

Lab note: measured log10(IC50) of `O=C1NCC2(CCCCC2)n2c1cc1cnc(N[C@@H]3CCCNC3)nc12` was 3.08

Reported log10(IC50) ( `NS(=O)(=O)Cc1cccc(Nc2ncc3cc4n(c3n2)C2(CCCCC2)CNC4=O)c1` ) = 5.00

###

target: CDK2/Cyclin E (Homo sapiens, UniProt P24941); test: CDK2/Cyclin E kinase assay (Nanosyn, Caliper microfluidic); conditions: 12-point dose-response, ATP at Km (100 μM), 3 hr
log10 IC50 listing for selected compounds.
For clarity, the numbers are log10 values of IC50 expressed in µM.

C[C@H]1NCCC[C@H]1C(=O)Nc1ncc2cc3n(c2n1)C1(CCCCC1)CNC3=O	0.73
O=C1NCC2(CCCCC2)n2c1cc1cnc(NC(=O)[C@H]3CNCCO3)nc12	1.41
O=C1NCC2(CCCCC2)n2c1cc1cnc(N[C@@H]3C[C@@H](O)CNC3=O)nc12	1.38
O=C(C[C@H]1CCCN1)Nc1ncc2cc3n(c2n1)C1(CCCCC1)CNC3=O	1.46
O=C1NCC2(CCCCC2)n2c1cc1cnc(N[C@H]3CCCNC3)nc12	-0.26
O=C(C[C@@H]1CCCN1)Nc1ncc2cc3n(c2n1)C1(CCCCC1)CNC3=O	1.43
O=C1NCC2(CCCCC2)n2c1cc1cnc(N[C@H]3Cc4ccccc4NC3=O)nc12	1.04
CN1CCN([C@H]2CC[C@@H](Nc3ncc4cc5n(c4n3)C3(CCCCC3)CNC5=S)CC2)CC1	-0.52
O=C1NCC2(CCCCC2)n2c1cc1cnc(N[C@H]3CC[C@H](N4CCOCC4)CC3)nc12	-0.54
O=C1NCC2(CCCCC2)n2c1cc1cnc(N[C@H]3CCCNC3=O)nc12	1.54

// log10 IC50 value for `C1=NCC2(CCCCC2)n2c1cc1cnc(NC3CCOCC3)nc12` : -2.06

Given item `S=C1NCC2(CCCCC2)n2c1cc1cnc(N[C@H]3CCCNC3)nc12` , the value recorded as its log10 IC50 is -0.96

Just so you know, measured log10 IC50 for `O=C1NCC2(CCCCC2)n2c1cc1cnc(NC(=O)[C@H]3CCNC3)nc12` came out at 1.41

GET /value?item= `CS(=O)(=O)N[C@H]1CC[C@H](Nc2ncc3cc4n(c3n2)C2(CCCCC2)CNC4=O)CC1` &field=log10 IC50 returns -0.72

The reported log10 IC50 of the compound `C[C@H]1CC[C@@H](Nc2ncc3cc4n(c3n2)C2(CCCCC2)CN=C4)CC1` was -0.32

###

target: CDK5/p35 (Homo sapiens, UniProt Q00535); experiment: CDK5/p35 kinase assay (Nanosyn, Caliper microfluidic); conditions: 12-point dose-response, ATP at Km (20 μM), 3 hr
Sequence (Q00535 whole entry): as the sequence (Q00535 whole entry) above
Sequence (Q15078 whole entry partner): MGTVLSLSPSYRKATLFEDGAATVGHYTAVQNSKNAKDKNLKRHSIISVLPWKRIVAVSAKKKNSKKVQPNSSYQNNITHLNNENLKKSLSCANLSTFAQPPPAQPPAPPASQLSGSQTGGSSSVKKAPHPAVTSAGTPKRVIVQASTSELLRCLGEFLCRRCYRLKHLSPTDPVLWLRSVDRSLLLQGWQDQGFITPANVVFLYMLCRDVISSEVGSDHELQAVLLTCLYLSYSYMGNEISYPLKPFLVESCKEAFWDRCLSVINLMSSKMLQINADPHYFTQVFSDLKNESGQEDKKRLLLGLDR
Listing of entries alongside the reported pIC50.
In simple prose, pIC50 is minus the logarithm base ten of a concentration in moles per litre.

O=C(C[C@H]1CCCN1)Nc1ncc2cc3n(c2n1)C1(CCCCC1)CNC3=O	4.55
O=C1NCC2(CCCCC2)n2c1cc1cnc(N[C@H]3CC[C@H](N4CCCCC4)CC3)nc12	6.15
O=C1NCC2(CCCCC2)n2c1cc1cnc(N[C@H]3CCCN[C@@H]3c3ccccc3)nc12	5.01
C1=NCC2(CCCCC2)n2c1cc1cnc(N[C@@H]3CCCNC3)nc12	5.82
N[C@H]1CC[C@@H](Nc2ncc3cc4n(c3n2)C2(CCCCC2)CN=C4)CC1	5.77

What the record says about `O=C1NCC2(CCCCC2)n2c1cc1cnc(N[C@@H]3CCCNC3)nc12` : pIC50 is 5.89

pIC50 reading for `C[C@H]1CC[C@@H](Nc2ncc3cc4n(c3n2)C2(CCCCC2)CN=C4)CC1` : 5.82

pIC50 for `CN1CCN([C@H]2CC[C@@H](Nc3ncc4cc5n(c4n3)C3(CCCCC3)CNC5=S)CC2)CC1` is 5.82

Field pIC50 (entry `O=C1NCC2(CCCCC2)n2c1cc1cnc(N[C@H]3CC[C@H](N4CCOCC4)CC3)nc12` ) reads 6.49

pIC50 in this record for `S=C1NCC2(CCCCC2)n2c1cc1cnc(N[C@H]3CCCNC3)nc12` : 7.29

get_value(item= `C1=NCC2(CCCCC2)n2c1cc1cnc(N[C@H]3CCCNC3)nc12` , readout=pIC50) returns 6.74

Entry `NS(=O)(=O)c1cccc(Nc2ncc3cc4n(c3n2)C2(CCCCC2)CNC4=O)c1` — recorded pIC50 = 8.12

pIC50 reported for this molecule `C[C@H]1CC[C@H](Nc2ncc3cc4n(c3n2)C2(CCCCC2)CN=C4)CC1` : 6.13

Noted for `O=C1NCC2(CCCCC2)n2c1cc1cnc(N[C@H]3CCCNC3)nc12` : its pIC50 reads 6.60

Data point: `O=C1CC[C@H](Nc2ncc3cc4n(c3n2)C2(CCCCC2)CNC4=O)CN1` ; pIC50 = 6.48

Reported pIC50 of `C1=NCC2(CCCCC2)n2c1cc1cnc(NC3CCOCC3)nc12` : 7.49

###

Biological target: CDK2/Cyclin E (Homo sapiens)
Assay: CDK2/Cyclin E kinase assay (Nanosyn, Caliper microfluidic)
Conditions: 12-point dose-response, ATP at Km (100 μM), 3 hr
Method: Selected compounds disclosed herein were tested in kinase assays by Nanosyn (Santa Clara, Calif.) to determine their inhibitory effect on selected CDKs. The assays were performed using microfluidic kinase detection technology (Caliper Assay Platform). The compounds were tested in 12-point dose-response format in singlicate at Kmfor ATP. Phosphoacceptor substrate peptide concentration used was 1 μM for all assays and Staurosporine was used as the reference compound for all assays. […]
observedProperty: IC50
Show the value, then the unit it is measured in.

Lookup result for `C[C@H]1CC[C@H](Nc2ncc3cc4n(c3n2)C2(CCCCC2)CN=C4)CC1` ; measured IC50: 260 nM

Reported IC50 for `NS(=O)(=O)c1cccc(Nc2ncc3cc4n(c3n2)C2(CCCCC2)CNC4=O)c1` was 7.8 nM

Lookup result for `O=C1NCC2(CCCCC2)n2c1cc1cnc(N[C@H]3CC[C@H](NCc4ccccc4F)CC3)nc12` ; measured IC50: 310 nM

What the record says about `S=C1NCC2(CCCCC2)n2c1cc1cnc(N[C@@H]3CCCNC3)nc12` : IC50 is 310 nM
